Data credit: patent US12398097B2

experimental target: WDR5 (Homo sapiens)
pKi: −log10 of the molar value.
Rule: Y for pKi not less than 6, N for anything less.

See these solved cases before continuing.
compound: O=C(c1cc(OC(F)(F)F)cc(NS(=O)(=O)c2cc(Br)ccc2O)c1O)N1CC[C@@H](O)C1 [Example J173]
category label: N

compound: CNC(=O)c1cc(C2(C#N)CCC2)cc(NS(=O)(=O)c2cc(Br)cc(Cl)c2O)c1O [Example J211]
category label: Y

compound: N#CC1(c2ccc(O)c(NS(=O)(=O)c3cc(Br)ccc3O)c2)CCC1 [JDM-06-030B]
category label: Y

compound: NC(=O)c1cc(C2CC2)cc(NS(=O)(=O)c2cc(Br)cc(Cl)c2O)c1O [Example J94]
category label: Y

compound: COc1cc(OC)c(S(=O)(=O)Nc2cc(Cl)cc([N+](=O)[O-])c2O)cc1Br [NE8]
category label: N

compound: COc1ccc(Br)cc1S(=O)(=O)Nc1cc(Cl)cc(C(=O)NCCCO)c1O [Example J53]
category label: N

Confirm if pKi reported for the compound COc1ccc(Br)cc1S(=O)(=O)Nc1cc(C(=O)O)cc(C2=CCOCC2)c1 [Example J193] is 6 or above.
N

Confirm if pKi reported for the compound O=C(NC1COC1)c1cc(NS(=O)(=O)c2cc(Br)ccc2O)cc(C2CC2)c1F [Example J138] is 6 or above.
N

###

experimental target: WDR5 (Homo sapiens, UniProt P61964)
Recorded Ki, one value per entry.
Use nM as the unit, but write only the number.

Some compounds with recorded Ki:
molecular string: CNC(=O)c1cc(C2CC2)cc(NS(=O)(=O)c2cc(Br)cc(Cl)c2O)c1O
endpoint unit: nM
measurement: 390
//
molecular string: CNC(=O)c1cc(C2(C#N)CCC2)cc(NS(=O)(=O)c2cc(Br)c(F)cc2OC)c1O
endpoint unit: nM
measurement: 2620
//
molecular string: O=C(N[C@H]1CCOC1)c1cc(C2CC2)cc(NS(=O)(=O)c2cc(Br)cc(Cl)c2O)c1O
endpoint unit: nM
measurement: 140

Tested on WDR5 (Homo sapiens, UniProt P61964): O=C(N[C@H]1CCOC1)c1cc(OC(F)(F)F)cc(NS(=O)(=O)c2cc(Br)ccc2O)c1O . Observed Ki: 460

Tested on WDR5 (Homo sapiens, UniProt P61964): O=C(NCc1ccccn1)c1cc(Cl)cc(NS(=O)(=O)c2cc(Br)ccc2O)c1O . Observed Ki: 790

Tested on WDR5 (Homo sapiens, UniProt P61964): O=C(O)c1cc(Cl)cc(NS(=O)(=O)c2cc(Br)cc(F)c2O)c1O . Observed Ki: 340

Tested on WDR5 (Homo sapiens, UniProt P61964): O=C(O)c1cc(Br)cc(S(=O)(=O)Nc2cc(Cl)cc([N+](=O)[O-])c2O)c1O . Observed Ki: 610

Tested on WDR5 (Homo sapiens, UniProt P61964): O=C(O)c1cc(Cl)cc(NS(=O)(=O)c2cc(Cl)c(Cl)cc2O)c1O . Observed Ki: 2490

###

experimental target: UniProtKB P61964
Entries get a class label from measured Ki. See ranges: lower bin: < 0.2 µM; middle bin: ≥ 0.2 µM and < 0.5 µM; upper bin: ≥ 0.5 µM

See these solved cases before continuing.
compound: CS(=O)(=O)c1cc(Cl)cc(NS(=O)(=O)c2cc(Br)cc(Cl)c2O)c1O [Example S16-2]
category label: lower bin
--
compound: COc1ccc(Br)cc1S(=O)(=O)Nc1cc(Cl)cc(C(=O)N2CC(O)C2)c1O [Example J63]
category label: upper bin

Place this compound in its band: N#CC1(c2ccc(O)c(NS(=O)(=O)c3cc(Br)ccc3O)c2)CCCCC1 [JDM-06-030C]
middle bin

Place this compound in its band: CC(C)[C@H](C)Nc1ccc(Br)cc1S(=O)(=O)Nc1cc(C2CC2)cc(C(=O)O)c1O [Example J76]
upper bin

Place this compound in its band: CNC(=O)c1cc(C2(C#N)CCCCC2)cc(NS(=O)(=O)c2cc(Br)ccc2O)c1O [Example J233]
lower bin

Place this compound in its band: N#CC1(c2cc(NS(=O)(=O)c3cc(Br)ccc3O)c(O)c(C(=O)O)c2)CCCCC1 [Example J231]
lower bin

Place this compound in its band: O=C(O)c1cc(NS(=O)(=O)c2cc(Br)ccc2O)cc(C2CC2)c1F [Example J114]
upper bin

Place this compound in its band: O=C(NCCO)c1cc(Cl)cc(NS(=O)(=O)c2cc(Br)cc(Cl)c2O)c1O [Example J41]
upper bin

Place this compound in its band: O=C(NCCO)c1cc(Cl)cc(NS(=O)(=O)c2cc(Br)ccc2O)c1O [Example J16]
upper bin

Place this compound in its band: O=C(O)c1cc(C2CC2)cc(NS(=O)(=O)c2cc(Br)cc(Cl)c2O)c1O [Example J70]
lower bin

Place this compound in its band: NC(=O)c1cc(F)cc(NS(=O)(=O)c2cc(Br)ccc2O)c1O [Example J108]
upper bin

###

experimental target: WDR5 (Homo sapiens, UniProt P61964)
Recorded pKi, one value per entry.
Convention used: pKi is expressed as -log10 of the molar concentration.

Some compounds with recorded pKi:
compound: COCCNC(=O)c1cc(C2CC2)cc(NS(=O)(=O)c2cc(Br)cc(Cl)c2O)c1O [Example J96]
experimental target: WDR5 (Homo sapiens, UniProt P61964)
pKi: 6.21

compound: CC(C)C(O)CNC(=O)c1cc(OC(F)(F)F)cc(NS(=O)(=O)c2cc(Br)cc(Cl)c2O)c1O (centres unmarked) [HCH-52]
experimental target: WDR5 (Homo sapiens, UniProt P61964)
pKi: 6.85

compound: COc1ccc(Br)cc1S(=O)(=O)Nc1cc(Cl)cc(C(=O)NCC2CCCO2)c1O (centres unmarked) [Example J65]
experimental target: WDR5 (Homo sapiens, UniProt P61964)
pKi: 5.99

compound: COc1cc(Cl)c(Br)cc1S(=O)(=O)Nc1cc(C2CC2)cc(C(=O)O)c1O [Example J71]
experimental target: WDR5 (Homo sapiens, UniProt P61964)
pKi: 5.57

compound: COC[C@H]1CCCN1c1ccc(Br)cc1S(=O)(=O)Nc1cc(C2CC2)cc(C(=O)O)c1O [Example J78]
experimental target: WDR5 (Homo sapiens, UniProt P61964)
pKi: 5.40

Tested on WDR5 (Homo sapiens, UniProt P61964): O=C(NC1COC1)c1cc(C2CC2)cc(NS(=O)(=O)c2cc(Br)cc(Cl)c2O)c1F [Example J159] . Observed pKi: 6.21

Tested on WDR5 (Homo sapiens, UniProt P61964): N#CC1(c2cc(NS(=O)(=O)c3cc(Br)ccc3O)c(O)c(C(N)=O)c2)CCCCC1 [Example J232] . Observed pKi: 6.66

Tested on WDR5 (Homo sapiens, UniProt P61964): COCCNC(=O)c1cc(Cl)cc(NS(=O)(=O)c2cc(Br)ccc2O)c1O [Example J15] . Observed pKi: 6.21

Tested on WDR5 (Homo sapiens, UniProt P61964): O=C(NC1COC1)c1cc(Cl)cc(NS(=O)(=O)c2cc(Br)ccc2O)c1O [Example J21] . Observed pKi: 6.24

Tested on WDR5 (Homo sapiens, UniProt P61964): NC(=O)c1cc(C2CC2)cc(NS(=O)(=O)c2cc(Br)ccc2O)c1O [Example J80] . Observed pKi: 5.79

Tested on WDR5 (Homo sapiens, UniProt P61964): CNC(=O)c1cc(Cl)cc(NS(=O)(=O)c2cc(Br)cc(Cl)c2O)c1O [Example J40] . Observed pKi: 6.62

Tested on WDR5 (Homo sapiens, UniProt P61964): O=[N+]([O-])c1cc(Cl)cc(NS(=O)(=O)c2cc(Br)cc(OC(F)(F)F)c2O)c1O [NE9] . Observed pKi: 6.41

Tested on WDR5 (Homo sapiens, UniProt P61964): CNC(=O)c1cc(S(F)(F)(F)(F)F)cc(NS(=O)(=O)c2cc(Br)ccc2O)c1O [Example S66] . Observed pKi: 7.70

Tested on WDR5 (Homo sapiens, UniProt P61964): O=C(O)CNC(=O)c1cc(OC(F)(F)F)cc(NS(=O)(=O)c2cc(Br)ccc2O)c1O [HCH-1] . Observed pKi: 6.19

Tested on WDR5 (Homo sapiens, UniProt P61964): O=C(O)c1cc(Cl)cc(NS(=O)(=O)c2cc(Br)c(F)cc2O)c1O [Example J9] . Observed pKi: 5.57

Tested on WDR5 (Homo sapiens, UniProt P61964): NC(=O)[C@H](CO)NC(=O)c1cc(OC(F)(F)F)cc(NS(=O)(=O)c2cc(Br)cc(Cl)c2O)c1O [HCH-56] . Observed pKi: 6.72

Tested on WDR5 (Homo sapiens, UniProt P61964): NC(=O)[C@H](CO)NC(=O)c1cc(OC(F)(F)F)cc(NS(=O)(=O)c2cc(Br)ccc2O)c1O [HCH-47] . Observed pKi: 6.59
